src = PubChem BioAssay (NCI)

# Tested on: MDA-MB-231 breast
# Procedure details: NCI tumour cell line growth inhibition, 48 h
Measure: TGI

Q: So what's the measured TGI for this one? CCOC(=O)c1cc2nc3ccccc3c(=O)n2c2ccccc12
Ans: > 10 µM

Q: Next entry: O=[N+]([O-])C(/C=C(\Cl)n1nnc2ccccc21)=C(/Cl)n1nnc2ccccc21
Ans: > 100 µM

Q: Next entry: N#Cc1c(-c2ccccc2)/c(=C\Nc2ccc(F)cc2)c(=O)n2c1nc1ccccc12
Ans: > 100 µM

Q: Next entry: COc1cc(OC)cc(-c2cc(=O)c3c(OC)c(OC)c(OC)c(OC)c3o2)c1
Ans: > 100 µM

Q: Next entry: O=c1c2sc(=S)n(-c3ccc(F)cc3)c2ncn1/N=C/c1ccc(F)cc1F
Ans: 53.4 µM

Q: Next entry: C=C(Br)C(C)(Br)CCC(Br)C(C)(C)Cl (stereo unspecified)
Ans: 34.8 µM

Q: Next entry: CC(=O)[C@@]12O[C@@H]1CC1C3CCC4=CC(O)CCC4(C)C3CCC12C (stereo partly specified)
Ans: 26.8 µM

Q: Next entry: O=c1c2sccc2n(CC2COc3ccccc3O2)c(=O)n1O (stereo unspecified)
Ans: > 100 µM

Q: Next entry: Cc1c(S(=O)(=O)c2ccccc2)c(N)n(CCN(C)C)c1C
Ans: > 100 µM

Q: Next entry: Cc1cn(C2CC(O)C(CO)O2)c(=O)[nH]c1=O (stereo unspecified)
Ans: > 5000 µM

Q: Next entry: C=C1C(=O)O[C@H]2[C@H]1CC/C(COC(=O)c1c[nH]c3ccccc13)=C\CC[C@@]1(C)O[C@@H]21
Ans: 0.447 µM

----------
# System: HL-60(TB) leukemia
# Procedure details: NCI tumour cell line growth inhibition, 48 h
Exercise: state measured TGI for each of the compounds provided.

Q: So what's the measured TGI for this one? C=C(Br)C(C)(Br)CCC(Br)C(C)(C)Cl (stereo not drawn)
Ans: 16.2 µM

Q: Next entry: Oc1ccc([I+]c2ccccc2)cc1O
Ans: 47.1 µM

Q: Next entry: Clc1ccc(C(c2ccc(Cl)cc2)c2ccccn2)cc1
Ans: 55.8 µM

Q: Next entry: N#CC12C(=O)N=C(N)C1(C#N)C(c1ccco1)NC1=C2CCCC1 (stereo not drawn)
Ans: > 100 µM

Q: Next entry: O=C(CSc1ccc(Cl)cc1)Nc1ccc(-c2nc3ccccc3s2)c(Cl)c1
Ans: > 100 µM

Q: Next entry: CC(C)=Cc1cc(C(=O)Nc2ccc(Cl)c(Cl)c2)nc(N)n1
Ans: > 100 µM

Q: Next entry: Cc1ccc2c(c1)C(=O)C1(Cc3ccccc3C1=O)C2 (stereo not drawn)
Ans: > 100 µM

Q: Next entry: C=CCSc1nnc2cc(CN3CCCC3)c(-c3ccc(Cl)cc3)nn12
Ans: 43.5 µM

Q: Next entry: CCOC(=O)CC(=O)ON(C)C(C)=O
Ans: > 100 µM

Q: Next entry: C=C1C(=O)O[C@H]2[C@H]1CC/C(COC(=O)c1c[nH]c3ccccc13)=C\CC[C@@]1(C)O[C@@H]21
Ans: 0.789 µM

Q: Next entry: CCOP(=O)(OCC)C(c1ccc(F)cc1)N(C(=O)NC(F)(F)F)c1ccc(OC)cc1 (stereo not drawn)
Ans: > 100 µM

Q: Next entry: CC1(C)CCCC2OC2CCC(C)(C)C1=O (stereo not drawn)
Ans: > 100 µM

Q: Next entry: Cc1cccc(NC(=O)Cn2cnc3sc(C(=O)OC(C)C)c(C)c3c2=O)c1
Ans: > 50 µM

----------
# System: NCI-H23 lung
# Procedure details: NCI tumour cell line growth inhibition, 48 h
Measure: TGI

Q: What reported TGI corresponds to O=C1OC(O)[C@@H]2[C@H]1[C@H]1CC[C@@H]2O1 (stereo partly specified) on NCI-H23 lung?
Ans: > 100 µM

Q: Next entry: Cc1cc2c(cc1Cl)SC(N(N(C)C)S(=O)(=O)c1ccc(Cl)cc1)=NS2(=O)=O
Ans: > 100 µM

Q: Next entry: CSC(=S)N(C)C
Ans: > 100 µM

Q: Next entry: CS(=O)(=O)OCC(CCl)(CCl)CCl
Ans: > 100 µM

Q: Next entry: O=C(O)/C=C(/C(=O)O)C12CCN3CC4=CCOC5CC(=O)NC1C5C4CC32 (stereo unspecified)
Ans: > 100 µM

Q: Next entry: COc1cc(C2c3cc4c(cc3OC(NN)C2C)OCO4)cc(OC)c1OC (stereo unspecified)
Ans: > 100 µM

Q: Next entry: CCN(CC)/C(SCc1ccccc1)=C(\C(Cl)=C(Cl)Cl)[N+](=O)[O-]
Ans: 49.6 µM

Q: Next entry: O=C(/C=C/c1ccncc1)c1cc(Cl)ccc1O
Ans: 38.8 µM

Q: Next entry: Cc1ccc(-c2[nH]c(=O)n(C3OC(CO)C(O)C(O)C3O)c(=O)c2C#N)cc1 (stereo unspecified)
Ans: > 100 µM

Q: Next entry: C/C(=N\NC(=S)NC(CCC(=O)O)C(=O)O)c1ccccn1 (stereo unspecified)
Ans: > 100 µM

Q: Next entry: CC1=C[C@@H]2Cc3nc4cc(Cl)ccc4c(N)c3[C@H](C1)C2
Ans: 22.3 µM

----------
# System: CCRF-CEM leukemia
# Procedure details: NCI tumour cell line growth inhibition, 48 h
Exercise: state measured TGI for each of the compounds provided.

Q: So what's the measured TGI for this one? O=c1[nH]c(=O)n(C2OC(CO)C(O)C2O)c2nc(-c3ccc(-c4ccccc4)cc3)cnc12 (stereo not given)
Ans: > 100 µM

Q: Next entry: COc1cc(/C=C/c2cc(O)c(C(C)=O)c(O)c2)cc2c1O[C@]1(C)CC[C@@H](O)C(C)(C)[C@H]1C2
Ans: > 100 µM

Q: Next entry: O=S1(=O)OCCOS(=O)(=O)C1Br
Ans: > 100 µM

Q: Next entry: COc1cc(NCc2ccc3oc(=O)c(-c4ccccc4)nc3c2)cc(OC)c1OC
Ans: > 10 µM

Q: Next entry: CC1=NN(c2cccc(Cl)c2)C2(SCC(=O)N2c2nc3ccccc3s2)/C1=C\c1ccccc1O (stereo not given)
Ans: > 100 µM

Q: Next entry: O=C(O)c1ccccc1CC1Cc2ccccc2C1=O (stereo not given)
Ans: > 100 µM

Q: Next entry: Clc1ccc(C(c2ccc(Cl)cc2)c2ccccn2)cc1
Ans: 48.1 µM

Q: Next entry: Cc1c2c(nn1-c1ccc(S(=O)(=O)/N=C3\SCCC(=O)N3c3ccccc3)cc1)-c1ccccc1CC2
Ans: > 100 µM

Q: Next entry: COc1ccc([C@H]2[C@@H](F)C(=O)N2c2cc(OC)c(OC)c(OC)c2)cc1F
Ans: > 100 µM

Q: Next entry: Cc1c(S(=O)(=O)c2ccccc2)c(N)n(CCN(C)C)c1C
Ans: > 100 µM

----------
# System: LOX IMVI melanoma
# Procedure details: NCI tumour cell line growth inhibition, 48 h
Measure: TGI

Q: So what's the measured TGI for this one? CCCC(=O)OC1CC(n2cc(F)c(=O)[nH]c2=O)OC1COP(=O)(OCC(Cl)(Cl)Cl)OCC(Cl)(Cl)Cl (stereo not drawn)
Ans: > 69.6 µM

Q: Next entry: Cc1ccc(S(=O)(=O)Nc2ccccc2C(=O)c2ccc(C)c(C)c2)cc1
Ans: > 100 µM

Q: Next entry: O=C1c2ccccc2-c2c1c(-c1ccc(F)cc1)nc1ccc3ccccc3c21
Ans: > 100 µM

Q: Next entry: OCCc1ccsc1-c1sc(-c2cc(CCO)c(-c3sccc3CCO)s2)cc1CCO
Ans: 72.3 µM

Q: Next entry: C=C1NC(=O)C(C(C)CC)NC(=O)C2CSCC(NC(=O)CCC(=O)O)C(=O)NC(Cc3ccccc3)C(=O)NC(C)C(=O)NC(CC(C)CC)C(=O)NC(C(=O)NC(Cc3ccccc3)C(=O)N3CCCC3C(=O)N2)C(C)OC(=O)C(CO)NC(=O)C(C(O)COC)N(C)C(=O)C(C(C)C)NC(=O)C(CC(C)CC)NC1=O (stereo not drawn)
Ans: > 6 µM

Q: Next entry: Cc1cc(/C=C/c2ccc3cc(N(C)C)ccc3[n+]2C)c(C)n1-c1ccccc1
Ans: 0.884 µM

Q: Next entry: Cc1cn(C2CC(O)C(CO)O2)c(=O)[nH]c1=O (stereo not drawn)
Ans: > 5000 µM

Q: Next entry: CS(=O)c1ncc2c(n1)-c1ccccc1OC2 (stereo not drawn)
Ans: > 100 µM

----------
# Test system: CAKI-1 renal
# Procedure details: NCI tumour cell line growth inhibition, 48 h; in the data active = GI50 below about 0.43 µM; inactive = the rest
Result category, one only: label 1 = active, label 0 = inactive

Q: What was the test verdict on COc1ccc(-c2nnc(COc3ccc(C(=O)/C=C/c4ccco4)cc3)o2)cc1 ?
Ans: label 0

Q: Next entry: Cc1cccc(NC(=O)Cn2cnc3sc(C(=O)OC(C)C)c(C)c3c2=O)c1
Ans: label 0

Q: Next entry: [Cl-].[La+3].[O-]/N=C(\c1ccccc1)c1ccccn1.[O-]/N=C(\c1ccccc1)c1ccccn1.[O-]/N=C(\c1ccccc1)c1ccccn1
Ans: label 0

Q: Next entry: Cn1cnc([N+](=O)[O-])c1S(=O)(=O)Oc1cccc2ccccc12
Ans: label 0

Q: Next entry: CN1CCN(CCCn2c(=O)c3sc4ncccc4c3n3nnc(-c4ccccc4)c23)CC1
Ans: label 0

Q: Next entry: CO[C@H]1/C=C(/C)CCC[C@H](C)[C@H](O)[C@@H](C)C(=O)C(C)(C)[C@@H](O)CC(=O)O[C@@H]1/C(C)=C/c1csc(C)n1
Ans: label 1
